- assay.target: Monoamine transporters; Norepinephrine & dopamine (Homo sapiens) (UniProt Q01959+P23975)
- Sequence (P23975 whole entry, looked up): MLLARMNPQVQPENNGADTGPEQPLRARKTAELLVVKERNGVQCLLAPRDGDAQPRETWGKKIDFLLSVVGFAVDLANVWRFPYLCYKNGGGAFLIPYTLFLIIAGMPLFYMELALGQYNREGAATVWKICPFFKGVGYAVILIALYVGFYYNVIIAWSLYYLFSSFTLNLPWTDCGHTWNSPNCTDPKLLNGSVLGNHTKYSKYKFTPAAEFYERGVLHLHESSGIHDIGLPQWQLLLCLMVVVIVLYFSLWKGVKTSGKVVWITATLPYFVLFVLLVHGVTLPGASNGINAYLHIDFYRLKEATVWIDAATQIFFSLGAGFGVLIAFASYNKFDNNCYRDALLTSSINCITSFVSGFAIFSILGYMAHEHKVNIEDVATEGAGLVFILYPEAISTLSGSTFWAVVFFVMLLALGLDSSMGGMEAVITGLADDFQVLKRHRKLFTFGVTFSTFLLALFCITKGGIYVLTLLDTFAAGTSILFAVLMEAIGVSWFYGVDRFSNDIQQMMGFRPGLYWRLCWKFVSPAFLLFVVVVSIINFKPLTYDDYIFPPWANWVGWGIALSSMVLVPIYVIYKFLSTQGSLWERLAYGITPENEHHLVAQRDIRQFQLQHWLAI
- Sequence (Q01959 whole entry, looked up): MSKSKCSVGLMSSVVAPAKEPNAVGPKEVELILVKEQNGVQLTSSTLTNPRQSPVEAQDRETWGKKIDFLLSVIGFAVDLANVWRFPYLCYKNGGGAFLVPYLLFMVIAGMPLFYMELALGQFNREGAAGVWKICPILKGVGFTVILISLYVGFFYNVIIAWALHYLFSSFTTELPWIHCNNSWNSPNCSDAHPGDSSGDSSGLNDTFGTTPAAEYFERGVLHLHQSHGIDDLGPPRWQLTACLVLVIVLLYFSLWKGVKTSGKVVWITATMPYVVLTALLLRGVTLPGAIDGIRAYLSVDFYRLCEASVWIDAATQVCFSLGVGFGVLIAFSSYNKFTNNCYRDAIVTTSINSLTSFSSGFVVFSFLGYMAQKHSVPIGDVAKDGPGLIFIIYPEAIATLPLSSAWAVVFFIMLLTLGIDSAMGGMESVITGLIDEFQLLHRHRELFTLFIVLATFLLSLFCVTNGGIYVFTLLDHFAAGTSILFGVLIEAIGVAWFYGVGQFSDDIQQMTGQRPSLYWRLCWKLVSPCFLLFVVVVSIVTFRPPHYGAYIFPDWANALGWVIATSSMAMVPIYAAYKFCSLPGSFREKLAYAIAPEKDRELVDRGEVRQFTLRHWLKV
- experiment.notes: Selectivity ratio as ratio of IC50 value against NET to that of DAT
- Type: protein assay

compound: COc1cccc2c1C1=NCCN1C2(O)c1ccc(Cl)cc1 (stereo not drawn)
Ratio: 2.3
--
compound: COc1ccc(C2(O)c3ccccc3C3=NCCCN32)cc1 (stereo not drawn)
Ratio: 2.3
--
compound: OC1(c2ccc(Cl)cc2)c2cccc(F)c2C2=NCCN21 (stereo not drawn)
Ratio: 0.04

###

- assay.target: Sodium-dependent serotonin transporter (Homo sapiens)
- Sequence (P31645 whole entry): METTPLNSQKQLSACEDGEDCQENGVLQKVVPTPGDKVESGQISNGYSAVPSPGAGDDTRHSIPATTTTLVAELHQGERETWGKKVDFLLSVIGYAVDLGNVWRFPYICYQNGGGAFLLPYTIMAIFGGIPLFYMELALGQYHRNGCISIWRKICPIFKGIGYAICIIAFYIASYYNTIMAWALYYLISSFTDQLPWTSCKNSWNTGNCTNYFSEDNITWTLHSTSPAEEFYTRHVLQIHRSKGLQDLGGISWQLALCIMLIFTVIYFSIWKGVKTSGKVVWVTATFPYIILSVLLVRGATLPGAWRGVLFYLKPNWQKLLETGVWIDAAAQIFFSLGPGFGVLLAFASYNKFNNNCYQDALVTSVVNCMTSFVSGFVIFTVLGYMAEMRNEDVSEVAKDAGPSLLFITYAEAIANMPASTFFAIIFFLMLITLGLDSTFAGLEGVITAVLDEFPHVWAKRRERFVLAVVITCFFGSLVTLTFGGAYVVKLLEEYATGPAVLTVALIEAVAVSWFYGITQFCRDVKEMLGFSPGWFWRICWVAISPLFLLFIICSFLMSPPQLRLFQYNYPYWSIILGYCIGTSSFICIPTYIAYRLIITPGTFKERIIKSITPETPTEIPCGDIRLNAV
pKi: −log10 of the molar value.
Response key: YES means pKi >= 7; NO means pKi < 7.

molecule: Clc1ccc(C2c3ccccc3C3=NCCN32)cc1 (stereo unspecified)
assay.target: Sodium-dependent serotonin transporter (Homo sapiens)
category: YES
--
molecule: COc1ccc2c(c1)C(O)(c1ccc(Cl)cc1)N1CCN=C21 (stereo unspecified)
assay.target: Sodium-dependent serotonin transporter (Homo sapiens)
category: NO
--
molecule: OC1(c2ccc3c(c2)OCO3)c2ccccc2C2=NCCCN21 (stereo unspecified)
assay.target: Sodium-dependent serotonin transporter (Homo sapiens)
category: YES
--
molecule: OC1(c2ccccc2)c2ccccc2C2=NCCN21 (stereo unspecified)
assay.target: Sodium-dependent serotonin transporter (Homo sapiens)
category: NO
--
molecule: OC1(c2ccc(Cl)cc2)c2cccc(F)c2C2=NCCN21 (stereo unspecified)
assay.target: Sodium-dependent serotonin transporter (Homo sapiens)
category: YES
--
molecule: COc1ccc(C2(O)c3ccccc3C3=NCCCN32)cc1 (stereo unspecified)
assay.target: Sodium-dependent serotonin transporter (Homo sapiens)
category: YES
